# TGI annotations
assay: Cytotoxicity against human OVCAR4 cells; format: functional; settings: OVCAR-4, read-out: pTGI (converted)
Give your result in µM as a bare value.

Here's what some known entries look like.
GET /value?item= COc1cc(/C=C/c2cc(O)c3c(c2)C[C@@H]2C(C)(C)[C@H](O)CC[C@@]2(C)O3)cc2[nH]cc(CC=C(C)C)c12 &field=TGI returns 47.9

GET /value?item= COc1cc(/C=C/c2cc(OC)c3cc[nH]c3c2)cc2c1O[C@]1(C)CC[C@@H](O)C(C)(C)[C@H]1C2 &field=TGI returns 26.9

New cases:
GET /value?item= COc1cc(/C=C/c2cc(O)c3cc[nH]c3c2)cc2c1O[C@]1(C)CC[C@@H](O)C(C)(C)[C@H]1C2 &field=TGI returns 34.7

GET /value?item= COc1cc(/C=C/c2cc(OC)c3c(C/C=C(\C)CCC=C(C)C)c[nH]c3c2)cc2c1O[C@]1(C)CC[C@@H](O)C(C)(C)[C@H]1C2 &field=TGI returns 70.8

GET /value?item= CC1(C)[C@H](O)CC[C@@]2(C)Oc3c(O)cc(/C=C/c4cc(O)c5cc[nH]c5c4)cc3C[C@H]12 &field=TGI returns 42.7

GET /value?item= COc1cc(/C=C/c2cc(O)c3c(CC=C(C)C)c[nH]c3c2)cc2c1O[C@]1(C)CC[C@@H](O)C(C)(C)[C@H]1C2 &field=TGI returns 50.1

GET /value?item= COc1cc(/C=C/c2cc(OC)c3c(CC=C(C)C)c[nH]c3c2)cc2c1O[C@]1(C)CC[C@@H](O)C(C)(C)[C@H]1C2 &field=TGI returns 33.1

GET /value?item= COc1cc(/C=C/c2cc(O)c3c(c2)C[C@@H]2C(C)(C)[C@H](O)CC[C@@]2(C)O3)cc2c1ccn2C &field=TGI returns 24
